biological target: Carbonic anhydrase 9 (Homo sapiens); assay: Inhibition of human carbonic anhydrase 9 catalytic site preincubated for 15 mins by stopped flow CO2 hydration assay
endpoint label: Ki (nM)

>>> measured_value("Cc1ccc(C(=O)Nc2ccc3c(c2)S(=O)(=O)NC3=O)cc1")
539
>>> measured_value("O=C(Nc1ccc2c(c1)S(=O)(=O)NC2=O)c1ccc(Cl)cc1")
1920
>>> measured_value("O=C(Nc1ccc2c(c1)C(=O)NS2(=O)=O)c1ccc(-c2ccccc2)cc1")
231
>>> measured_value("O=C(Nc1ccc2c(c1)S(=O)(=O)NC2=O)c1ccccc1")
220
>>> measured_value("O=C(Nc1cccc2c1C(=O)NS2(=O)=O)c1ccc(-c2ccccc2)cc1")
1190
>>> measured_value("O=C(Nc1ccc2c(c1)C(=O)NS2(=O)=O)c1cccc(Br)c1")
31.5
